# assay.target: T1, human CD122 (IL-2Rβ) (human, UniProt P14784 27-240)
# T1 construct: Receptor reagent used in SPR; also called interleukin 2 receptor beta
# T1 sequence (looked up): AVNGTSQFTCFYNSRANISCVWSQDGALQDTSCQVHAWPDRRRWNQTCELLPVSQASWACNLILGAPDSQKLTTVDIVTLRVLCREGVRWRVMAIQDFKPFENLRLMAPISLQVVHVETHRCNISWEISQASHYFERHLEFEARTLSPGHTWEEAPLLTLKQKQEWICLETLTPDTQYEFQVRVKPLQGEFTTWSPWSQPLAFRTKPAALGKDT
# assay.notes: SPR; 1:1 binding fit
assay.metric: pKd
To interpret pKd, take it as minus log10 of a concentration measured in moles per litre.

Reference set, count: 5
MDNA209(3)FEAA-Fc (2:1) (Fc fusion, MDNA209(3) (no S130R) plus F42A, E62A, fused to Fc; also called TP36872F; not shown: linker (if any) and Fc region) APTSSSTKKTQLQLEHLRLDLEMILNGINNYKNPKLTRMLTAKFYMPKKATELKHLQCLEEALKPLEEVLNLAQSKNFHFDPRDVVSNINVFVLELKGSETTFMCEYADETATIVEFLNRWITFCTSIISTLT = 8.43
MDNA209FEAA-Fc-A11 (2:1:2) (Fc fusion, Bispecific format: IL-2 antagonist mutein with FEAA, Fc, and IL-13 mutein A11; also called Construct #10; not shown: linker (if any), Fc, linker and IL-13 mutein A11) APTSSSTKKTQLQLEHLRLDLEMILNGINNYKNPKLTRMLTAKFYMPKKATELKHLQCLEEALKPLEEVLNLAQSKNFHFDPRDVVSNINVFVLELKGSETTFMCEYADETATIVEFLNRWITFCTSIIRTLT = 8.34
MDNA209FEAA-Fc (2:1) (Fc fusion, MDNA209 plus F42A, E62A, fused to Fc; also called MDN209FEAA-Fc; TP36871F; not shown: linker (if any) and Fc region) APTSSSTKKTQLQLEHLRLDLEMILNGINNYKNPKLTRMLTAKFYMPKKATELKHLQCLEEALKPLEEVLNLAQSKNFHFDPRDVVSNINVFVLELKGSETTFMCEYADETATIVEFLNRWITFCTSIIRTLT = 8.31
MDNA209FEY-Fc (2:1) (Fc fusion, MDNA209 plus F42A, Y45A, fused to Fc; also called TP40452F; not shown: linker (if any) and Fc region) APTSSSTKKTQLQLEHLRLDLEMILNGINNYKNPKLTRMLTAKFAMPKKATELKHLQCLEEELKPLEEVLNLAQSKNFHFDPRDVVSNINVFVLELKGSETTFMCEYADETATIVEFLNRWITFCTSIIRTLT = 8.30
MDNA209-Fc (2:1) (Fc fusion, IL-2 mutein MDNA209 (L18R, Q22E, L80F, R81D, L85V, I86V, I92F, Q126T, S130R) fused to Fc; (2:1) read as two muteins per Fc dimer; order from the name; also called MDNA209 (2:1) Fc; Construct #8; not shown: linker (if any) and Fc region) APTSSSTKKTQLQLEHLRLDLEMILNGINNYKNPKLTRMLTFKFYMPKKATELKHLQCLEEELKPLEEVLNLAQSKNFHFDPRDVVSNINVFVLELKGSETTFMCEYADETATIVEFLNRWITFCTSIIRTLT = 8.41

Kindly consider the entry below.
Value lookup for pKd; key = MDNA209FA-Fc (2:1) (Fc fusion, MDNA209 plus F42A, fused to Fc; also called TP40451F; not shown: linker (if any) and Fc region) APTSSSTKKTQLQLEHLRLDLEMILNGINNYKNPKLTRMLTAKFYMPKKATELKHLQCLEEELKPLEEVLNLAQSKNFHFDPRDVVSNINVFVLELKGSETTFMCEYADETATIVEFLNRWITFCTSIIRTLT
8.26
